experiment: NCI Yeast Anticancer Drug Screen. Data for the rad50 strain (AID 155); settings: S. cerevisiae rad50 strain growth inhibition; at 5.0 µM (retest, dose inferred, filed as 0.5)
About 79,000 compounds went through this panel and 15% of them were active in at least one assay; those are over-represented in the sample as a whole. The source made the active and inactive calls. Cut-off read from the data, not from the text of the source: active = growth inhibition above about 70%; inactive = the rest.
The reply should be one of these categories: active, inactive

CCCCCC/C=C1\CCC(CN2CCCC2)C1=O (stereo not given) :: inactive
CN1CSC(=S)N(Cc2ccccc2)C1 :: inactive
O=[n+]1c2ccccc2n([O-])c2cc(Cl)ccc21 :: active
CC(C)c1ccc(C(=O)OC2CCCC2)cc1 :: inactive
COC(=O)[C@]1(C)CCC[C@]2(C)c3ccc(C(C)C)cc3C(=O)[C@@H](Br)[C@@H]12 :: inactive

Query compound follows.
What was the test verdict on S=C1SCN(Cc2cccs2)CN1Cc1cccs1 ? inactive
